Reference for the values: PubChem BioAssay (NCI)

System: A498 renal
method: NCI-60 one-dose screen, 48 h
run parameters: 10 µM unless noted
The panel holds about 83,000 compounds, 20% with a hit somewhere; the sample as a whole holds those more often. Calls of active or inactive are those of the source. Rule for the calls: active = growth percent below 10; inactive = the rest.
The reply should name one outcome from TRUE = active, FALSE = inactive

Worked examples, 10 compounds total:
INSERT INTO measurements (compound, group_label) VALUES
  ('N#Cc1ccc(S(=O)(=O)Nc2ccc(-c3cnc(N)[nH]3)cc2)cc1', 'FALSE'),
  ('O=C1Nc2ccc(Br)cc2/C1=N\c1nnc(-c2ccc(Cl)cc2)o1', 'FALSE'),
  ('O=C(CSc1ccc(-c2nc3ccccc3[nH]2)cn1)N1CCN(c2ccccc2F)CC1', 'FALSE'),
  ('C=C1C(=O)O[C@@H]2C[C@@H](C)/C=C\C(=O)[C@](C)(OC(C)=O)C[C@H](OC(=O)/C(C)=C\C)[C@@H]12', 'FALSE'),
  ('COc1ccc(-c2nnc(/N=C3/C(=O)Nc4ccc(Br)cc43)o2)cc1', 'FALSE'),
  ('Cn1c2ccccc2c2c3c(c4c5ccc(Br)cc5oc4c21)C(=O)N(O)C3=O', 'TRUE'),
  ('CN1C(=O)N(C)C2Nn3c(s/c(=C\c4ccccn4)c3=O)=NC21 (stereo not given)', 'FALSE'),
  ('CNC(=O)c1cc(Oc2ccc3nc(NC(=O)c4cc(C)cc(C)c4)sc3c2)ccn1', 'FALSE'),
  ('COc1ccc(NC2=C(Cl)C(=O)C(C)=C(C)C2=O)cc1', 'FALSE'),
  ('CC[C@@](C)(NC(=O)C(C)(C)NC(=O)[C@@H](NC(=O)[C@@H]1CCCN1C(=O)C(C)(C)NC(=O)[C@H](CC(C)C)NC(=O)CNC(=O)C(C)(C)NC(=O)[C@@H](NC(=O)C(C)(C)NC(=O)[C@H](CCC(N)=O)NC(=O)[C@H](C)NC(=O)C(C)(C)NC(=O)[C@H](C)NC(=O)C(C)(C)NC(=O)[C@@H]1CCCN1C(=O)C(C)(C)NC(C)=O)C(C)C)C(C)C)C(=O)N[C@@H](CCC(N)=O)C(=O)N[C@@H](CCC(N)=O)C(=O)N[C@H](CO)Cc1ccccc1', 'FALSE');

In this assay, the call recorded for COc1ccc(NS(=O)(=O)c2ccc(-c3cnc(C4CC4)o3)cc2)cc1Cl was what?
FALSE

Please do the same for Oc1ccc(-c2nnc(SCc3ccc(O)c4ncccc34)o2)cc1 as well.
TRUE

Please do the same for Oc1ccc(CSc2nnc(-c3ccc(Br)cc3)n2-c2ccccc2)c2cccnc12 as well.
FALSE

* * *

Tested on: RXF 393 renal
method: NCI-60 one-dose screen, 48 h
run parameters: 10 µM unless noted
Compounds without any hit were thinned out: in the full panel of roughly 83,000, 20% have a hit. Activity calls are given as the source filed them. How the source made its calls: active means growth percent below 10; inactive means the rest.
The reply should name one outcome from true for active, false for inactive

INSERT INTO results (test_smiles, subject_of_test, group_label) VALUES
  ('CCc1ccc(NC(=O)N[C@@H](Cc2cccc(F)c2)C(=O)N[C@@H]2C(=O)N3CCC[C@H]3C(=O)N3CCCC[C@H]3C(=O)N[C@@H](C)C(=O)N3C[C@H](C)C[C@H]3C(=O)O[C@H]2C)c(F)c1', 'RXF 393 renal', 'true'),
  ('C=CCn1c(SCC(=O)Nc2cccc(C(=O)/C=C/c3cccc([N+](=O)[O-])c3)c2)nc2ccccc2c1=O', 'RXF 393 renal', 'false'),
  ('COc1cccc(/C=C/C(=O)c2ccc(NC(=O)COc3cccc4cccnc34)cc2)c1', 'RXF 393 renal', 'false');

In this assay, the call recorded for CC1CCN(S(=O)(=O)c2ncsc2-c2ccccc2)CC1 was what?
true

Please do the same for Cc1ccc(-n2cc(/C=C/C(=O)c3ccc(S(C)(=O)=O)cc3)c(-c3ccc(S(C)(=O)=O)cc3)n2)cc1 as well.
false

Please do the same for CCOC(=O)c1c(NC(=O)c2ccc(F)cc2F)sc2c1CCC(=O)C2 as well.
false

Please do the same for CCNC(=O)Oc1ccc(/C(=C(/C)c2ccccc2)c2ccc(OCCN3CCCC3)cc2)cc1 as well.
false

Please do the same for Cn1ccnc1C(=O)/C=C/c1ccc(C(=O)Nc2ccc(NC(=O)CCNC(=O)c3csc(Br)n3)cc2)cc1 as well.
false

* * *

System: RXF 393 renal
method: NCI-60 one-dose screen, 48 h
run parameters: 10 µM unless noted
Compounds without any hit were thinned out: in the full panel of roughly 83,000, 20% have a hit. Activity calls are given as the source filed them. Rule for the calls: active = growth percent below 10; inactive = the rest.
The reply should name one outcome from TRUE (active), FALSE (inactive)

In this assay, the call recorded for CCCCSc1nnc(-c2ccc(-c3ccc(Cl)cc3)nc2C)o1 was what?
FALSE

Please do the same for NNC(=O)c1sc2nc(-c3cnccn3)cc(-c3cccs3)c2c1N as well.
FALSE

Please do the same for C/C=C/C=C1\C[C@H]2CO[C@H](O2)C1=O as well.
FALSE

Please do the same for CCN1C(=O)N(CC)C2SC(N/N=C/c3ccccc3F)=NC21 (stereo not given) as well.
FALSE

Please do the same for COc1cc2c3c(n(CCCNC4CCCCC4)c(=O)c2cc1OC)-c1cc2c(cc1C3=O)OCO2 as well.
FALSE

* * *

Please go through the items and note down their growth.
Tested on: SK-OV-3 ovarian
method: NCI-60 one-dose screen, 48 h (100 = growth as untreated, 0 = no growth, -100 = all killed)
run parameters: 10 µM unless noted
The panel holds about 83,000 compounds, 20% with a hit somewhere; the sample as a whole holds those more often. Active and inactive are the calls of the source. The calls were made as follows: active = growth percent below 10; inactive = the rest.

Worked examples, 5 compounds total:
INSERT INTO assay_data (compound, measured_metric, result) VALUES
  ('COc1cc(/C=C/C(=O)c2ccc(NC(=O)COc3cccc4cccnc34)cc2)cc(OC)c1OC', 'growth', '118% (inactive)'),
  ('COc1ccc([C@H]2[C@H](O)C(=O)N2c2cc(OC)c(OC)c(OC)c2)cc1Cl', 'growth', '27.3% (inactive)'),
  ('Oc1ccc(CSc2nnc(-c3ccc(Br)cc3)o2)c2cccnc12', 'growth', '50.2% (inactive)'),
  ('Clc1ccc(-c2csc(N/N=C/c3nc4ccccc4n3C3CC3)n2)cc1', 'growth', '108% (inactive)'),
  ('COc1ccc(C2CC(c3ccc(Nc4nc(NCCO)nc(Nc5ccc(Cl)cc5)n4)cc3)=Nc3c(N)nc(N)nc3N2)cc1 (stereo unspecified)', 'growth', '112% (inactive)');

Could you now look at the following compound, please?
Name the recorded growth for CC(=O)NC(C)(C)C(=O)N1CCC[C@H]1C(=O)NC(C)(C)C(=O)N[C@@H](C)C(=O)NC(C)(C)C(=O)NC(C)(C)C(=O)N[C@@H](CCC(N)=O)C(=O)NC(C)(C)C(=O)N[C@H](C(=O)NC(C)(C)C(=O)NCC(=O)N[C@@H](CC(C)C)C(=O)NC(C)(C)C(=O)N1CCC[C@H]1C(=O)N[C@H](C(=O)NC(C)(C)C(=O)NC(C)(C)C(=O)N[C@@H](CCC(N)=O)C(=O)N[C@@H](CCC(N)=O)C(=O)N[C@H](CO)Cc1ccccc1)C(C)C)C(C)C .
17.1% [4.25 µM] (inactive)

* * *

Tested on: SF-539 CNS
method: NCI-60 one-dose screen, 48 h
run parameters: 10 µM unless noted
About 83,000 compounds went through this panel and 20% of them were active in at least one assay; those are over-represented in the sample as a whole. The source made the active and inactive calls. The calls were made as follows: active = growth percent below 10; inactive = the rest.
The reply should name one outcome from active, inactive

INSERT INTO assay_data (test_smiles, group_label) VALUES
  ('O=c1[nH]c2cc(Cl)ccc2n1C1CCN(c2ccc3nnc(Cl)n3n2)CC1', 'inactive');

In this assay, the call recorded for COc1cc(O)c2c(c1)/C=C/C[C@H](O)[C@H](O)C(=O)/C=C\C[C@H](C)OC2=O was what?
active

Please do the same for COc1ccc2c(c1)c(-c1nnc(N)nc1-c1cn(C)c3ccccc13)cn2C as well.
inactive

Please do the same for O=C(Nc1cc(Cl)cc(Cl)c1)Nc1nc2ccc([N+](=O)[O-])cc2s1 as well.
active

Please do the same for CN(c1ccc(Cl)cc1)S(=O)(=O)c1ccc(-c2cnc(C3CC3)o2)cc1 as well.
inactive

* * *

Please go through the items and note down their growth.
System: COLO 205 colon
method: NCI-60 one-dose screen, 48 h (100 = growth as untreated, 0 = no growth, -100 = all killed)
run parameters: 10 µM unless noted
Compounds without any hit were thinned out: in the full panel of roughly 83,000, 20% have a hit.
Answers are plain numbers, in %.

Worked examples, 4 molecules total:
INSERT INTO results (test_smiles, measured_metric, quantitative_readout) VALUES
  ('Oc1ccc(CSc2nnc(-c3ccccc3)n2-c2ccccc2)c2cccnc12', 'growth', 61.7),
  ('Brc1cccc(/C=N/Nc2nc(N/N=C/c3cccc(Br)c3)nc(N3CCOCC3)n2)c1', 'growth', 23.8),
  ('CCN(CC)Cc1c(-c2cccc(OC(F)(F)F)c2)[nH]c2ccc(N3CCCC3)cc2c1=O', 'growth', 103),
  ('CN(C)c1ncc(/C=C2\SC(=S)N(Cc3ccccc3Cl)C2=O)s1', 'growth', 91.8);

What reported growth corresponds to O=C(O)c1ccc(-n2cc(CNc3ccc(F)cc3)c(-c3ccc(C(F)(F)F)cc3)n2)cc1 on COLO 205 colon?
103
